Reference source for all entries: patent US9028856B2

Please provide measured % mortality 1 d for the entries that follow.
tested on: malaria mosquito (Anopheles gambiae); assay: Five-minute exposure bioassay, WHO Adult Mosquito Susceptibility Test Kit, treated filter paper; assay type: in vivo; conditions: Table 80, filter paper (mg/m^2), mortality 24 hours post exposure
Answers are plain numbers, in %.

CNC(=O)Oc1cccc2c1OC(C)(C)O2 [40 mg bendiocarb]: 94
CC1(C)C(C=C(Br)Br)C1C(=O)OC(C#N)c1cccc(Oc2ccccc2)c1 (centres unmarked): 75
CNC(=O)Oc1cccc2c1OC(C)(C)O2 [10 mg Bendiocarb]: 9

Kindly give each listed record's % mortality 1 d.
1. CC1(C)[C@H](C(=O)O[C@H](C#N)c2cccc(Oc3ccccc3)c2)[C@@H]1C=C(Br)Br [10 mg DTM]
2. CNC(=O)Oc1cccc2c1OC(C)(C)O2 [5 mg Bendiocarb]
3. CC1(C)[C@H](C(=O)O[C@H](C#N)c2cccc(Oc3ccccc3)c2)[C@@H]1C=C(Br)Br [5 mg DTM]

17
12
13

Can you give me % mortality 1 d for all of these, one by one?
1. CC1(C)[C@H](C(=O)O[C@H](C#N)c2cccc(Oc3ccccc3)c2)[C@@H]1C=C(Br)Br [40 mg DTM]
2. CNC(=O)Oc1cccc2c1OC(C)(C)O2 [20 mg Bendiocarb]

83
27

====

system: tropical house mosquito Culex quinquefasciatus (adults, 3 days old); assay: Efficacy of formulations on surfaces (glazed/unglazed tiles, plywood), ten 3 day old mosquitoes, 3 min exposure; assay type: in vivo; conditions: 1 h; in acetone on glazed tiles; Table 84
readoutKind: % KD and Mortality (%)
One number for each entry, in %.

Report % KD and Mortality for every entry below.
1. CN1C(C)(C)CC(O)CC1(C)C
2. O=C(O)CCCCCCCCC(=O)O
3. CC1(C)CC(OC(=O)CCCCCCCCC(=O)OC2CC(C)(C)NC(C)(C)C2)CC(C)(C)N1
4. CC1(C)CC(O)CC(C)(C)N1[O]
5. CC1(C)CC(O)CC(C)(C)N1

[0, 3, 3, 0, 0]

====

tested on: Musca domestica, susceptible strain WHO(N); test: Topical insecticide application to houseflies; format: in vivo; conditions: 4 h, 0.5 μl per fly, % a.i. conc. in acetone, Table 95
readoutKind: % Mortality after (%)
One number for each entry, in %.

Consider the following illustrative entries.
CC1(C)[C@H](C(=O)O[C@H](C#N)c2cccc(Oc3ccccc3)c2)[C@@H]1C=C(Br)Br [0.0000256% DTM]: 20
CC1(C)[C@H](C(=O)O[C@H](C#N)c2cccc(Oc3ccccc3)c2)[C@@H]1C=C(Br)Br [0.00064% DTM]: 100
CC1(C)C(C=C(Br)Br)C1C(=O)OC(C#N)c1cccc(Oc2ccccc2)c1 (stereo not shown): 80

Please look up its % Mortality after: `Cc1ccc(O)c(-n2nc3ccccc3n2)c1`
0

====

For each of the compounds below, state its % Mortality after.
tested on: Musca domestica, susceptible strain WHO(N); assay: Topical insecticide application to houseflies; type: in vivo; conditions: 15′, 0.5 μl per fly, % a.i. conc. in acetone, Table 95
Give bare numbers, in %.

Before answering, review these 3 worked examples.
CC1(C)[C@H](C(=O)O[C@H](C#N)c2cccc(Oc3ccccc3)c2)[C@@H]1C=C(Br)Br [0.0000256% DTM]: 10
CC1(C)C(C=C(Br)Br)C1C(=O)OC(C#N)c1cccc(Oc2ccccc2)c1 (stereo not shown): 20
CC1(C)[C@H](C(=O)O[C@H](C#N)c2cccc(Oc3ccccc3)c2)[C@@H]1C=C(Br)Br [0.00064% DTM]: 100

Consider the record given below.
Returns the measured % Mortality after for the input compound. Input: `Cc1ccc(O)c(-n2nc3ccccc3n2)c1`
0
